# EXPERIMENTAL_TARGET: glucagon receptor (human, UniProt P47871 26-477)
# Sequence (P47871 26-477): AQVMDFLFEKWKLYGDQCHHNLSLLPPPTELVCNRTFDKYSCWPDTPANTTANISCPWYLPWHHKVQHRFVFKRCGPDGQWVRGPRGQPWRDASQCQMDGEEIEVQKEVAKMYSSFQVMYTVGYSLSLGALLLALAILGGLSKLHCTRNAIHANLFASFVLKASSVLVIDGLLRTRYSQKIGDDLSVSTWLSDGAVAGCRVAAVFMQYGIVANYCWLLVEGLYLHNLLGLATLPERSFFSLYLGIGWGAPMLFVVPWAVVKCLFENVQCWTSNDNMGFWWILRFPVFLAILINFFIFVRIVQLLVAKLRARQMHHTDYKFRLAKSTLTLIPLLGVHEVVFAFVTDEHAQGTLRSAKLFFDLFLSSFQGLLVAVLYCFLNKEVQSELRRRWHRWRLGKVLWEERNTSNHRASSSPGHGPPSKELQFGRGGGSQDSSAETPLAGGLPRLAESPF
# EXPERIMENT: cell-based or functional assay
Starred links: 1 amine or outer side, 2 acyl side, 3 side chain; linkers in the order of their positions; H or OH if unused. Non-standard residues stand in square brackets, D forms with d. Groups on a side chain read outwards from the residue. Primed or numbered codes have the meaning given here. No end group written: not given here. *: point of attachment. γGlu = O=C(O)[C@H](CCC(=O)[*:2])N[*:1]; Stearoyl = CCCCCCCCCCCCCCCCCC(=O)*; αMeF = C[C@](N)(Cc1ccccc1)C(=O)O; αMeK = C[C@](N)(CCCCN)C(=O)O; αMeS = C[C@](N)(CO)C(=O)O; PEG2′ = not defined here; Aib = CC(C)(N)C(=O)O
MEASUREMENT_KIND: Primary assay EC50 (cAMP), n1 (nM)

Examples with answers:
1) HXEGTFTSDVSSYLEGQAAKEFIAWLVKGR (Aib 2; α-MeSer 8; α-MeSer 11; C-terminal amide) [SEQ ID NO 23] = 540
2) H[Aib]EGS[αMeF]TSDV[αMeS]S[αMeF]LEGEAAAEFIK([PEG2′-PEG2′-γGlu-Stearoyl])WVVEGG-NH2 [SEQ ID NO 69] = 25.5
3) H[Aib]EGS[αMeF]TSDVSK([PEG2′-PEG2′-γGlu-Stearoyl])YLEGEAA[αMeK]E[αMeF]IA[αMeF]VVEGG-NH2 [SEQ ID NO 60] = 25
4) H[Aib]EGS[αMeF]TSDVSK([PEG2′-PEG2′-PEG2′-Stearoyl])YLEGEAA[αMeK]E[αMeF]IA[αMeF]VVEGG-NH2 [SEQ ID NO 64] = 25
5) HXEGTFTXDVSSYLEGQAAKEFIAWLVKGR (Aib 2; Aib 8; C-terminal amide) [SEQ ID NO 20] = 290
6) H[Aib]EGS[αMeF]TSDVSK([PEG2′-PEG2′-γGlu-Stearoyl])YLEGEAA[Aib]E[αMeF]IA[αMeF]VVEGG-NH2 [SEQ ID NO 59] = 25.6
7) H[Aib]EGS[αMeF]TSDV[αMeS]S[αMeF]LEGEAAK([PEG2′-PEG2′-γGlu-Stearoyl])E[αMeF]IAWVV[αMeK]GG-NH2 [SEQ ID NO 49] = 25
8) H[Aib]EGSFTSDV[αMeS]S[αMeF]LEGEAAK([PEG2′-PEG2′-γGlu-Stearoyl])E[αMeF]IA[αMeF]VV[αMeK]GG-NH2 [SEQ ID NO 45] = 26

P. H[Aib]EGS[αMeF]TSDV[αMeS]SYLEGEAAK([PEG2′-PEG2′-PEG2′-Stearoyl])E[αMeF]IA[αMeF]VV[αMeK]GG-NH2 [SEQ ID NO 53]
Q. H[Aib]EGS[αMeF]TSDVSS[αMeF]LEGEAAK([PEG2′-PEG2′-γGlu-Stearoyl])E[αMeF]IA[αMeF]VVKGG-NH2 [SEQ ID NO 40]
// compare: P vs Q , metric Primary assay EC50 (cAMP), n1, want the smaller API: response body contains the label of the selected item.
P
